protocol-details: Pharmacokinetics study after separate oral administration in rats (HPLC-MS of plasma)
Format: in vivo, Sprague-Dawley rats
conditions-used: male, Sprague-Dawley, rat, plasma, po, 50 mg/kg, IQ group: oral IQ 50 mg/kg, rat plasma, mean ± SD, n = 5; read-out: t1/2z
Could you please report measured half-life for the items listed next?

Find the recorded half-life belonging to O=c1c(O)c(-c2ccc(O)c(O)c2)oc2cc(O)cc(O)c12 [Qr, Quercetin] and report it.
6.31 h

Now try O=C(O)[C@H]1O[C@@H](Oc2c(-c3ccc(O)c(O)c3)oc3cc(O)cc(O)c3c2=O)[C@H](O)[C@@H](O)[C@@H]1O [QG, Quercetin-3-O-β-D-glucuronide] .
8.72 h

Now try O=c1c(O[C@@H]2O[C@H](CO)[C@@H](O)[C@H](O)[C@H]2O)c(-c2ccc(O)c(O)c2)oc2cc(O)cc(O)c12 [IQ, Isoquercitrin] .
0.71 h

----------
protocol-details: Pharmacokinetics study after separate oral administration in rats (HPLC-MS of plasma)
Assay type: in vivo, Sprague-Dawley rats
conditions-used: male, Sprague-Dawley, rat, plasma, po, 50 mg/kg, Qr group (oral Qr 50 mg/kg), rat plasma; labelled substance = analyte; mean of 5 rats; read-out: MRT(0-t) (converted)
measure: MRT last (h)
Supply the numeric figure in h, leaving out any unit text.

Find the recorded MRT last belonging to O=C(O)[C@H]1O[C@@H](Oc2c(-c3ccc(O)c(O)c3)oc3cc(O)cc(O)c3c2=O)[C@H](O)[C@@H](O)[C@@H]1O [QG, Quercetin-3-O-β-D-glucuronide] and report it.
5.27

----------
protocol-details: Pharmacokinetics study after separate oral administration in rats (HPLC-MS of plasma)
Type: in vivo, Sprague-Dawley rats
conditions-used: male, Sprague-Dawley, rat, plasma, po, 50 mg/kg, IQ group (oral IQ 50 mg/kg), rat plasma; labelled substance = analyte; individual rats No1-No5; read-out: Tmax (converted)
Could you please report measured Tmax for the items listed next?
Supply the numeric figure in min, leaving out any unit text.

Find the recorded Tmax belonging to O=C(O)[C@H]1O[C@@H](Oc2c(-c3ccc(O)c(O)c3)oc3cc(O)cc(O)c3c2=O)[C@H](O)[C@@H](O)[C@@H]1O [QG, Quercetin-3-O-β-D-glucuronide] and report it.
30

Now try `O=c1c(O)c(-c2ccc(O)c(O)c2)oc2cc(O)cc(O)c12` .
30

Now try `O=c1c(O[C@@H]2O[C@H](CO)[C@@H](O)[C@H](O)[C@H]2O)c(-c2ccc(O)c(O)c2)oc2cc(O)cc(O)c12` .
15

----------
protocol-details: Pharmacokinetics study after separate oral administration in rats (HPLC-MS of plasma)
Type: in vivo, Sprague-Dawley rats
conditions-used: male, Sprague-Dawley, rat, plasma, po, 50 mg/kg, QG group (oral QG 50 mg/kg), rat plasma; labelled substance = analyte; mean of 5 rats; read-out: AUC(0-t) (converted)
measure: AUC(0-t)

Find the recorded AUC(0-t) belonging to O=c1c(O)c(-c2ccc(O)c(O)c2)oc2cc(O)cc(O)c12 [Qr, Quercetin] and report it.
58400 ng·h/mL

Now try O=C(O)[C@H]1O[C@@H](Oc2c(-c3ccc(O)c(O)c3)oc3cc(O)cc(O)c3c2=O)[C@H](O)[C@@H](O)[C@@H]1O [QG, Quercetin-3-O-β-D-glucuronide] .
16000 ng·h/mL

----------
protocol-details: Pharmacokinetics study after separate oral administration in rats (HPLC-MS of plasma)
Format: in vivo, Sprague-Dawley rats
conditions-used: male, Sprague-Dawley, rat, plasma, oral, 50 mg/kg, IQ group (oral IQ 50 mg/kg), 1440 min, individual rats NO. 1-5; read-out: Plasma concentrations
measure: concentration at 1440 min (ng/mL)
Supply the numeric figure in ng/mL, leaving out any unit text.

Find the recorded concentration at 1440 min belonging to `O=c1c(O[C@@H]2O[C@H](CO)[C@@H](O)[C@H](O)[C@H]2O)c(-c2ccc(O)c(O)c2)oc2cc(O)cc(O)c12` and report it.
0

----------
protocol-details: Pharmacokinetics study after separate oral administration in rats (HPLC-MS of plasma)
Format: in vivo, Sprague-Dawley rats
conditions-used: male, Sprague-Dawley, rat, plasma, po, 50 mg/kg, QG group (oral QG 50 mg/kg), rat plasma; labelled substance = analyte; mean of 5 rats; read-out: MRT(0-t) (converted)
measure: MRT last (h)
Supply the numeric figure in h, leaving out any unit text.

Find the recorded MRT last belonging to O=C(O)[C@H]1O[C@@H](Oc2c(-c3ccc(O)c(O)c3)oc3cc(O)cc(O)c3c2=O)[C@H](O)[C@@H](O)[C@@H]1O [QG, Quercetin-3-O-β-D-glucuronide] and report it.
7.3

----------
protocol-details: Pharmacokinetics study after separate oral administration in rats (HPLC-MS of plasma)
Format: in vivo, Sprague-Dawley rats
conditions-used: male, Sprague-Dawley, rat, plasma, po, 50 mg/kg, Qr group: oral Qr 50 mg/kg, rat plasma, mean ± SD, n = 5; read-out: MRT0−t (converted)
Protocol: A total of 15 SPF Sprague-Dawley rats (SD, male, 190–210 g) were provided by Sino-British Sippr/BK Lab Animal Company Ltd. (Shanghai, China). The rats were kept in standard conditions (22–26 °C; 40–60% relative humidity; 12 h light/dark cycle). Throughout the rearing period, the animals had access to food and water ad libitum. Animal experiments were conducted in accordance with the standard ethical guidelines of the Laboratory Animal Management Committee of Jiangsu Province (SYXK (SU) 2016-0011). […]
measure: MRT last (h)
Supply the numeric figure in h, leaving out any unit text.

Find the recorded MRT last belonging to O=C(O)[C@H]1O[C@@H](Oc2c(-c3ccc(O)c(O)c3)oc3cc(O)cc(O)c3c2=O)[C@H](O)[C@@H](O)[C@@H]1O [QG, Quercetin-3-O-β-D-glucuronide] and report it.
5.26

----------
Could you please report measured Cmax for the items listed next?
protocol-details: Pharmacokinetics study after separate oral administration in rats (HPLC-MS of plasma)
Type: in vivo, Sprague-Dawley rats
conditions-used: male, Sprague-Dawley, rat, plasma, po, 50 mg/kg, Qr group: oral Qr 50 mg/kg, rat plasma, mean ± SD, n = 5; read-out: Cmax
Supply the numeric figure in ng/mL, leaving out any unit text.

Find the recorded Cmax belonging to O=C(O)[C@H]1O[C@@H](Oc2c(-c3ccc(O)c(O)c3)oc3cc(O)cc(O)c3c2=O)[C@H](O)[C@@H](O)[C@@H]1O [QG, Quercetin-3-O-β-D-glucuronide] and report it.
6460

Now try `O=c1c(O)c(-c2ccc(O)c(O)c2)oc2cc(O)cc(O)c12` .
7470

----------
protocol-details: Pharmacokinetics study after separate oral administration in rats (HPLC-MS of plasma)
Assay type: in vivo, Sprague-Dawley rats
conditions-used: male, Sprague-Dawley, rat, plasma, oral, 50 mg/kg, IQ group (oral IQ 50 mg/kg), 480 min, individual rats NO. 1-5; read-out: Plasma concentrations
measure: concentration at 480 min (ng/mL)
Supply the numeric figure in ng/mL, leaving out any unit text.

Find the recorded concentration at 480 min belonging to `O=c1c(O[C@@H]2O[C@H](CO)[C@@H](O)[C@H](O)[C@H]2O)c(-c2ccc(O)c(O)c2)oc2cc(O)cc(O)c12` and report it.
0

----------
protocol-details: Pharmacokinetics study after separate oral administration in rats (HPLC-MS of plasma)
Format: in vivo, Sprague-Dawley rats
conditions-used: male, Sprague-Dawley, rat, plasma, po, 50 mg/kg, IQ group: oral IQ 50 mg/kg, rat plasma, mean ± SD, n = 5; read-out: Cmax
measure: Cmax (ng/mL)
Supply the numeric figure in ng/mL, leaving out any unit text.

Find the recorded Cmax belonging to O=C(O)[C@H]1O[C@@H](Oc2c(-c3ccc(O)c(O)c3)oc3cc(O)cc(O)c3c2=O)[C@H](O)[C@@H](O)[C@@H]1O [QG, Quercetin-3-O-β-D-glucuronide] and report it.
3910

Now try `O=c1c(O[C@@H]2O[C@H](CO)[C@@H](O)[C@H](O)[C@H]2O)c(-c2ccc(O)c(O)c2)oc2cc(O)cc(O)c12` .
350

Now try `O=c1c(O)c(-c2ccc(O)c(O)c2)oc2cc(O)cc(O)c12` .
6600

----------
protocol-details: Pharmacokinetics study after separate oral administration in rats (HPLC-MS of plasma)
Type: in vivo, Sprague-Dawley rats
conditions-used: male, Sprague-Dawley, rat, plasma, po, 50 mg/kg, Qr group (oral Qr 50 mg/kg), rat plasma; labelled substance = analyte; individual rats No1-No5; read-out: Tmax (converted)
measure: Tmax (min)
Supply the numeric figure in min, leaving out any unit text.

Find the recorded Tmax belonging to O=C(O)[C@H]1O[C@@H](Oc2c(-c3ccc(O)c(O)c3)oc3cc(O)cc(O)c3c2=O)[C@H](O)[C@@H](O)[C@@H]1O [QG, Quercetin-3-O-β-D-glucuronide] and report it.
30

----------
protocol-details: Pharmacokinetics study after separate oral administration in rats (HPLC-MS of plasma)
Format: in vivo, Sprague-Dawley rats
conditions-used: male, Sprague-Dawley, rat, plasma, po, 50 mg/kg, Qr group: oral Qr 50 mg/kg, rat plasma, mean ± SD, n = 5; read-out: t1/2z
measure: half-life (h)
Supply the numeric figure in h, leaving out any unit text.

Find the recorded half-life belonging to O=c1c(O)c(-c2ccc(O)c(O)c2)oc2cc(O)cc(O)c12 [Qr, Quercetin] and report it.
7.29

Now try O=C(O)[C@H]1O[C@@H](Oc2c(-c3ccc(O)c(O)c3)oc3cc(O)cc(O)c3c2=O)[C@H](O)[C@@H](O)[C@@H]1O [QG, Quercetin-3-O-β-D-glucuronide] .
9.1
